Recorded normalised viability values for a group of molecules are listed next.
Tested on: DU-4475
Experiment: normalised viability (% of control), CellTiter-Blue; higher = more viable cells (about 100 = DMSO control)
Details: incubation time: 72 h
The reply should contain only the number, in %.

- molecule: "CO[C@@]12[C@H](COC(N)=O)C3=C(C(=O)C(C)=C(N)C3=O)N1C[C@@H]1N[C@@H]12 [Mitomycin C] (3000 nM)"
  normalised viability [%]: 91.5
- molecule: "CCNC(=O)CCC/C=C\\C[C@@H]1[C@@H](/C=C/[C@@H](O)CCc2ccccc2)[C@H](O)C[C@@H]1O [Bimatoprost] (1650 nM)"
  normalised viability [%]: 120
- molecule: "CC1(C)CCC(c2ccc(Cl)cc2)=C(CN2CCN(c3ccc(C(=O)NS(=O)(=O)c4ccc(N[C@H](CCN5CCOCC5)CSc5ccccc5)c(S(=O)(=O)C(F)(F)F)c4)cc3)CC2)C1 [Navitoclax] (3000 nM)"
  normalised viability [%]: 20.1
- molecule: "CCN(CC)CCCC(C)Nc1ccnc2cc(Cl)ccc12 (configuration not stated) [Chloroquine] (297 nM)"
  normalised viability [%]: 85.2
- molecule: "CC(O)(CS(=O)(=O)c1ccc(F)cc1)C(=O)Nc1ccc(C#N)c(C(F)(F)F)c1 (configuration not stated) [Bicalutamide] (3000 nM)"
  normalised viability [%]: 103
- molecule: "CNC(=O)c1ccccc1Sc1ccc2c(/C=C/c3ccccn3)n[nH]c2c1 [Axitinib] (3000 nM)"
  normalised viability [%]: 33.9

Turning now to a further molecule:
stdin: Please look at this molecule and report its normalised viability: COc1c2occc2cc2ccc(=O)oc12 [Methoxsalen] (3000 nM)
stdout: 94.6

====

Recorded normalised response values for a group of compounds are listed next.
Tested on: HDQ-P1
Test: normalised response (% of control), CellTox Green; higher = less cell death (100 = DMSO, 0 = benzethonium chloride kill control)
Settings: incubation time: 72 h

- compound: "CCN(CC)CCCC(C)Nc1ccnc2cc(Cl)ccc12 (configuration not stated) [Chloroquine] (1000 nM)"
  normalised response: "88.4%"
- compound: "CCn1c(C(=O)N(C2CC2)C2CC2)cc2c3c(ncn3C)c(Nc3cc(C)n(C)n3)nc21 (1000 nM)"
  normalised response: "96.2%"
- compound: "O=C(O)CNC(=O)c1c(O)c2ccccc2n(Cc2ccccc2)c1=O [IOX-2] (500 nM)"
  normalised response: "100%"
- compound: "CCNC(=O)CCC/C=C\\C[C@@H]1[C@@H](/C=C/[C@@H](O)CCc2ccccc2)[C@H](O)C[C@@H]1O [Bimatoprost] (55 nM)"
  normalised response: "64.3%"
- compound: "Cc1cn(-c2cc(NC(=O)c3ccc(C)c(Nc4nccc(-c5cccnc5)n4)c3)cc(C(F)(F)F)c2)cn1 [Nilotinib] (10000 nM)"
  normalised response: "108%"

stdin: Please look at this compound and report its normalised response: CN(Cc1cnc2nc(N)nc(N)c2n1)c1ccc(C(=O)N[C@@H](CCC(=O)O)C(=O)O)cc1 [Methotrexate] (50000 nM)
stdout: 112%

stdin: Please look at this compound and report its normalised response: CC(C)(C)c1nc(-c2cccc(NS(=O)(=O)c3c(F)cccc3F)c2F)c(-c2ccnc(N)n2)s1 [Dabrafenib] (25 nM)
stdout: 95.9%

====

System: SK-BR-3
Assay: normalised response (% of control), CellTiter-Glo; higher = more viable cells (100 = DMSO, 0 = benzethonium chloride kill control)
Conditions: incubation time: 72 h
Recorded normalised response values for a group of molecules are listed next.
The reply should contain only the number, in %.

- molecule: "CCNC(=O)CCC/C=C\\C[C@@H]1[C@@H](/C=C/[C@@H](O)CCc2ccccc2)[C@H](O)C[C@@H]1O [Bimatoprost] (0.55 nM)"
  study target: "SK-BR-3"
  unit abbrev: "%"
  normalised response: 85.8
- molecule: "CC(C)C[C@H](NC(=O)[C@@H](COC(C)(C)C)NC(=O)[C@H](Cc1ccc(O)cc1)NC(=O)[C@H](CO)NC(=O)[C@H](Cc1c[nH]c2ccccc12)NC(=O)[C@H](Cc1cnc[nH]1)NC(=O)[C@@H]1CCC(=O)N1)C(=O)N[C@@H](CCCNC(=N)N)C(=O)N1CCC[C@H]1C(=O)NNC(N)=O [Goserelin] (1 nM)"
  study target: "SK-BR-3"
  unit abbrev: "%"
  normalised response: 96.8

stdin: Please look at this molecule and report its normalised response: Cc1cn(-c2cc(NC(=O)c3ccc(C)c(Nc4nccc(-c5cccnc5)n4)c3)cc(C(F)(F)F)c2)cn1 [Nilotinib] (1000 nM)
stdout: 97.5

stdin: Please look at this molecule and report its normalised response: CO[C@@H]1[C@H](N(C)C(=O)c2ccccc2)C[C@H]2O[C@]1(C)n1c3ccccc3c3c4c(c5c6ccccc6n2c5c31)C(=O)NC4 [Midostaurin] (1 nM)
stdout: 102

stdin: Please look at this molecule and report its normalised response: CN[C@@H](C)C(=O)N[C@H]1CN(C(=O)CC(C)C)CC[C@H]2CC[C@@H](C(=O)NC(c3ccccc3)c3ccccc3)N2C1=O [AT-406] (1 nM)
stdout: 105

stdin: Please look at this molecule and report its normalised response: CC[C@H](CO)Nc1nc(NCc2ccccc2)c2ncn(C(C)C)c2n1 [Seliciclib] (1000 nM)
stdout: 106

stdin: Please look at this molecule and report its normalised response: CC[C@H](CO)Nc1nc(NCc2ccccc2)c2ncn(C(C)C)c2n1 [Seliciclib] (1 nM)
stdout: 107

====

System: BT-549
Assay: drug sensitivity score (DSS), CellTiter-Glo (DSS (AUC-based score)); higher = stronger drug effect (viability inhibition or cytotoxicity); extreme values may be limits of the assay
Details: incubation time: 72 h
Recorded drug sensitivity score values for a group of compounds are listed next.
Lab note: record the figure alone, no unit after it.

- compound: "CO[C@@]12[C@H](COC(N)=O)C3=C(C(=O)C(C)=C(N)C3=O)N1C[C@@H]1N[C@@H]12 [Mitomycin C]"
  study target: "BT-549"
  drug sensitivity score: 8.27
- compound: "CO[C@@H]1[C@H](N(C)C(=O)c2ccccc2)C[C@H]2O[C@]1(C)n1c3ccccc3c3c4c(c5c6ccccc6n2c5c31)C(=O)NC4 [Midostaurin]"
  study target: "BT-549"
  drug sensitivity score: 13.8
- compound: "O=C(CCCCCCC(=O)Nc1ccccc1)NO [Vorinostat]"
  study target: "BT-549"
  drug sensitivity score: 1.14
- compound: "O=[N+]([O-])c1ccc2c(c1)S(=O)(=O)C=C2 [Stattic]"
  study target: "BT-549"
  drug sensitivity score: 20.4
- compound: "CCn1c(C(=O)N(C2CC2)C2CC2)cc2c3c(ncn3C)c(Nc3cc(C)n(C)n3)nc21"
  study target: "BT-549"
  drug sensitivity score: 0
- compound: "CN(Cc1cnc2nc(N)nc(N)c2n1)c1ccc(C(=O)N[C@@H](CCC(=O)O)C(=O)O)cc1 [Methotrexate]"
  study target: "BT-549"
  drug sensitivity score: 0
- compound: "CC(C)(C)c1nc(-c2cccc(NS(=O)(=O)c3c(F)cccc3F)c2F)c(-c2ccnc(N)n2)s1 [Dabrafenib]"
  study target: "BT-549"
  drug sensitivity score: 0
- compound: "Cc1cc(Nc2nc(N[C@@H](C)c3ncc(F)cn3)ncc2Cl)[nH]n1 [AZD1480]"
  study target: "BT-549"
  drug sensitivity score: 0
- compound: "CN[C@@H](C)C(=O)N[C@H]1CN(C(=O)CC(C)C)CC[C@H]2CC[C@@H](C(=O)NC(c3ccccc3)c3ccccc3)N2C1=O [AT-406]"
  study target: "BT-549"
  drug sensitivity score: 17.3
- compound: "Cc1nc(C(=O)NCC(=O)O)c(O)c2ccc(Oc3ccccc3)cc12 [FG-4592]"
  study target: "BT-549"
  drug sensitivity score: 0

stdin: Please look at this compound and report its drug sensitivity score: CN(C)C(=N)NC(=N)N [Metformin]
stdout: 0

stdin: Please look at this compound and report its drug sensitivity score: CNC(=O)c1ccccc1Sc1ccc2c(/C=C/c3ccccn3)n[nH]c2c1 [Axitinib]
stdout: 1.06

stdin: Please look at this compound and report its drug sensitivity score: Cc1cn(-c2cc(NC(=O)c3ccc(C)c(Nc4nccc(-c5cccnc5)n4)c3)cc(C(F)(F)F)c2)cn1 [Nilotinib]
stdout: 1.04

stdin: Please look at this compound and report its drug sensitivity score: Nc1ccn([C@@H]2O[C@H](CO)[C@@H](O)C2(F)F)c(=O)n1 [Gemcitabine]
stdout: 14.7

====

Recorded normalised response values for a group of compounds are listed next.
System: CAL-85-1
Assay: normalised response (% of control), CellTox Green; higher = less cell death (100 = DMSO, 0 = benzethonium chloride kill control)
Settings: incubation time: 72 h
The reply should contain only the number, in %.

- compound: "C=CCn1c(=O)c2cnc(Nc3ccc(N4CCN(C)CC4)cc3)nc2n1-c1cccc(C(C)(C)O)n1 [MK1775] (1000 nM)"
  study target: "CAL-85-1"
  measurement: 25.9
- compound: "CCN(CC)CCCC(C)Nc1ccnc2cc(Cl)ccc12 (stereo not given) [Chloroquine] (1000 nM)"
  study target: "CAL-85-1"
  measurement: 110
- compound: "CCNC(=O)CCC/C=C\\C[C@@H]1[C@@H](/C=C/[C@@H](O)CCc2ccccc2)[C@H](O)C[C@@H]1O [Bimatoprost] (5500 nM)"
  study target: "CAL-85-1"
  measurement: 106
- compound: "Cc1nc(C(=O)NCC(=O)O)c(O)c2ccc(Oc3ccccc3)cc12 [FG-4592] (10000 nM)"
  study target: "CAL-85-1"
  measurement: 78.6
- compound: "O=C(CCCCCCC(=O)Nc1ccccc1)NO [Vorinostat] (1000 nM)"
  study target: "CAL-85-1"
  measurement: 95.5

stdin: Please look at this compound and report its normalised response: CC(C)n1cnc2c(NCCc3ccc(O)cc3)nc(-c3csc4ccccc34)nc21 [StemRegenin 1] (1000 nM)
stdout: 118

stdin: Please look at this compound and report its normalised response: Nc1ccn([C@@H]2O[C@H](CO)[C@@H](O)C2(F)F)c(=O)n1 [Gemcitabine] (100 nM)
stdout: 87.8
